Below, each of the binders is paired with its reported EC50 of ADCC (NFAT-CD16 reporter), MCF-7 value.
Molecular target: T1, human Trop-2 expressed on cell surface (human, UniProt P09758 27-323)
T1 sequence (looked up): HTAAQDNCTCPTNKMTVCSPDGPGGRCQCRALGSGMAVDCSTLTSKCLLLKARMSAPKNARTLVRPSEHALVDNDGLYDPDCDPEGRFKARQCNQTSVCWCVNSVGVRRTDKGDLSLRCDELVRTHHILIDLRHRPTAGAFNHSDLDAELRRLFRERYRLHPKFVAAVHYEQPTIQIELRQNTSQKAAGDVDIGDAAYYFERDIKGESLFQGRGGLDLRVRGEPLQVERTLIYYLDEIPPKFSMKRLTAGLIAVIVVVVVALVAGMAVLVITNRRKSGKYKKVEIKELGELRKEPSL
Test: cell-based or functional assay
The answer is to be given in nM; state only the numeric part.

For the binder 9D7-2 (antibody, V domains shown) VH: QSLEESGGDLVQPGASLTLTCKASGFDLNNYSILWVRQAPGKGLEWIGSIYISGGSTYYANWAKGRFAISKTSSTTVTLQMTSLTAADTATYFCARDDGTASYYLNLWGPGTLVTVSS VL: YDMTQTPASVSEPVGGTVTIKCQASEDIYKLLAWYQQKPGQPPKLLIYAASDLESGVPSRFKGRGSGTDYTLTISDLEAADAATYYCQQAYTIGNIDNSFGGGTEVVVK , give its measured EC50 of ADCC (NFAT-CD16 reporter), MCF-7 value. 0.23

Further cases:
For the binder 72F12 (antibody, V domains shown, Rabbit-derived clone; LEM construct: VH + rabbit IgG CH1 + human IgG1 CH2-CH3) VH: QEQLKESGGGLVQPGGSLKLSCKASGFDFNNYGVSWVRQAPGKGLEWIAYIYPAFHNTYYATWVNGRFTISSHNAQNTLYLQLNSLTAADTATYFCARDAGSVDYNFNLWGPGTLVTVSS VL: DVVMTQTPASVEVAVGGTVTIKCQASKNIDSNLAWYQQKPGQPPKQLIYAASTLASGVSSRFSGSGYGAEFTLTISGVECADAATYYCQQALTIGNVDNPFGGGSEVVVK , give its measured EC50 of ADCC (NFAT-CD16 reporter), MCF-7 value. 0.16
